Cited source for all entries: ChEMBL document CHEMBL1201862

Tested on: NCI-H522
Experiment: NCI tumour cell line growth inhibition, 48 h
Activity calls are given as the source filed them. Cut-off read from the data, not from the text of the source: active = GI50 up to about 1.1 µM and inactive = higher.
reported.endpoint: GI50

INSERT INTO assay_data (compound, recorded_result) VALUES
  ('Nc1nc(N)c(N=O)c(Nc2ccc(I)cc2)n1', '12.1 µM (inactive)'),
  ('COC1(c2ccc(Cl)cc2)SC=C(C)n2c1noc2=O (centres undefined)', '89.5 µM (inactive)'),
  ('O=C(O)c1cc(=O)c2cc(C(=O)c3cccs3)c(Cl)c(Cl)c2o1', '> 100 µM (inactive)'),
  ('COC1OC(Cn2cc([N+](=O)[O-])nc2C)C(O)C(O)C1O (centres undefined)', '> 100 µM (inactive)'),
  ('Cn1c(=O)c2c([nH]/c(=N/N=C/c3ccccc3C(=O)O)n2C)n(C)c1=O', '> 100 µM (inactive)'),
  ('Cc1cc(NS(=O)(=O)c2ccc(/N=N/c3c(O)c(C(=O)O)cc4ccccc34)cc2)nc(C)n1', '> 100 µM (inactive)'),
  ('COc1cccc(Nc2nc(N)nc(N)c2N)c1', '30 µM (inactive)'),
  ('CCOP(=O)(OCC)c1cc(-c2ccccc2)ccc1N', '61.8 µM (inactive)'),
  ('O=C1CC(c2ccc[nH]2)=NN1c1ccccc1', '> 100 µM (inactive)'),
  ('O=C1CN2C(c3ccccc3)=NN(c3ccc([N+](=O)[O-])cc3)C2(c2ccccc2)c2cc(Cl)ccc2N1CC1CC1 (centres undefined)', '> 100 µM (inactive)'),
  ('COc1ccc(Nc2c[nH]c(=O)[nH]c2=O)cc1', '> 100 µM (inactive)'),
  ('Nc1ccc(-c2nc3ccccc3s2)cc1CO', '52.8 µM (inactive)'),
  ('COc1ccc(OC)c(NC(=O)C(=O)NNC(=O)c2sc(NNC(C)=O)nc2C)c1', '18.2 µM (inactive)'),
  ('C=CCCCN(C(=O)c1ccccc1)c1ccc(C(=O)OC)o1', '64.3 µM (inactive)'),
  ('COc1c(O)cc2c(c1O)C(=O)C(Cc1ccc(O)cc1)CO2 (centres undefined)', '80.7 µM (inactive)'),
  ('COc1ccc(-c2c3ccccc3c(-c3ccc(OCCBr)cc3)c3ccccc23)cc1', '> 100 µM (inactive)'),
  ('O=C1CNS(=O)(=O)N1', '> 100 µM (inactive)'),
  ('CC1(C)C(=O)N=C(N)N1C(=O)OCc1ccccc1', '> 100 µM (inactive)'),
  ('COc1c(C)c(C/C=C(\C)CCCCO)c(OC)c2ccccc12', '19.1 µM (inactive)'),
  ('COc1cc2c(c(OC)c1OC)-c1cccc(=O)cc1C(NC(C)=O)CC2 (centres undefined)', '0.0382 µM (active)'),
  ('NC(=O)c1nnsc1NN=O', '> 100 µM (inactive)'),
  ('CCOC(=O)C(NC(=O)CC(C)C)(N1CCN(c2cc3c(cc2F)c(=O)c(C(=O)O)cn3C2CC2)CC1)C(F)(F)F (centres undefined)', '2.73 µM (inactive)'),
  ('O=C1C2=Cc3ccccc3CCN2c2ccccc21', '40.2 µM (inactive)'),
  ('CCCCCCCCCCCCc1ccsc1-c1ccc(-c2ccc(-c3sccc3CCCCCCCCCCCC)s2)s1', '> 100 µM (inactive)'),
  ('CC(C)c1cccc(C(C)C)c1NC(=O)C(=O)Cc1nc2ccc([N+](=O)[O-])cc2nc1O', '6.35 µM (inactive)'),
  ('COc1ccc2cc(NC(=O)N/N=C\c3ccc(Cl)cc3)ccc2c1', '> 100 µM (inactive)'),
  ('CSC1C(=O)Nc2ccc3ccccc3c21 (centres undefined)', '2.54 µM (inactive)'),
  ('CCOC(=O)c1cc2c(OCc3ccccc3)c(OC)cc3c2c(n1)N(c1ccc(OC)cc1)C(C)C3 (centres undefined)', '25.2 µM (inactive)'),
  ('Cc1ccccc1-n1c(C)nc2c1C(=O)c1ccccc1C2=O', '21.2 µM (inactive)'),
  ('COP(=O)(O)/C=C/C(NC(=O)C(Cl)(Cl)Cl)c1ccccc1 (centres undefined)', '> 100 µM (inactive)'),
  ('O=C(CC1C(=O)Nc2ccccc2[S+]1[O-])Nc1ccc(Cl)cc1 (centres undefined)', '> 100 µM (inactive)'),
  ('COC(=O)C(=O)C(C#N)c1ccc(Cl)c(Cl)c1 (centres undefined)', '> 100 µM (inactive)'),
  ('COc1cc(C2c3cc4c(cc3OC(O)C2C)OCO4)cc(OC)c1OC (centres undefined)', '0.207 µM (active)'),
  ('C=C[C@@H]1C(CO)=CCC2[C@H]1CCC1C(C)(C)C(=O)CC[C@]21C (some centres undefined)', '> 100 µM (inactive)'),
  ('CC(=O)c1c(C)n(C)c2c1nnc1ccccc12', '> 100 µM (inactive)'),
  ('COC(=O)n1c(C)c(C=O)c2ccc(OC)cc21', '38.5 µM (inactive)'),
  ('O=C1NC(Nc2ccccc2)=N/C1=C\c1c(Cl)cccc1Cl', '53.3 µM (inactive)'),
  ('Cc1cccc(C(O)c2cccnc2)c1O (centres undefined)', '> 100 µM (inactive)'),
  ('COc1cccc2c1C(=O)c1c(O)c3c(c(O)c1C2=O)C[C@@](O)(C(C)=O)C[C@@H]3OC1CC(O)C(O)C(C)O1 (some centres undefined)', '1.82 µM (inactive)'),
  ('O=C1CC(c2ccc([N+](=O)[O-])cc2)C2(C(=O)NC(=S)NC2=O)C(c2ccc([N+](=O)[O-])cc2)C1 (centres undefined)', '18.9 µM (inactive)'),
  ('COc1cc(OC)c2nccc(NCCCN(C)C)c2c1[N+](=O)[O-]', '> 100 µM (inactive)'),
  ('COCOc1c(C(OCOC)c2cnc(Sc3ccccc3)n2C)ccc(OC)c1OC (centres undefined)', '90.8 µM (inactive)'),
  ('CC(=O)C1Cn2c(nc3ccccc32)C[Se]1 (centres undefined)', '3.28 µM (inactive)'),
  ('O=C(NC(Nc1ccc(F)c(Cl)c1)(C(F)(F)F)C(F)(F)F)OCc1ccccc1', '22.7 µM (inactive)');
